Provide the recorded growth estimate for the entries that follow.
test system: Saccharomyces cerevisiae PS128 hsf1 delta, HSF1(1-493) fusion; assay: growth estimate (transactivation domain function in HSF1 fusion, heat-shock survival) (a.u. (slope of normalised read count over time)); higher = stronger growth at 37°C, i.e. more transactivation activity; details: library: design library
Reply briefly: the number, and no unit.

Prompt: Provide the documented growth estimate with Saccharomyces cerevisiae PS128 hsf1 delta, HSF1(1-493) fusion as the system for TMADVYNYLFDD
Completion: 0.169

Prompt: Provide the documented growth estimate with Saccharomyces cerevisiae PS128 hsf1 delta, HSF1(1-493) fusion as the system for MLSSHGFSVDTSPLLDLFSP
Completion: -0.191

Prompt: Provide the documented growth estimate with Saccharomyces cerevisiae PS128 hsf1 delta, HSF1(1-493) fusion as the system for VADAIWEELLSEDL
Completion: 0.167

Prompt: Provide the documented growth estimate with Saccharomyces cerevisiae PS128 hsf1 delta, HSF1(1-493) fusion as the system for PEFPGIELQELAELQALLQQ
Completion: 0.131

Prompt: Provide the documented growth estimate with Saccharomyces cerevisiae PS128 hsf1 delta, HSF1(1-493) fusion as the system for LFDYDFLFGNKFA
Completion: -0.246

Prompt: Provide the documented growth estimate with Saccharomyces cerevisiae PS128 hsf1 delta, HSF1(1-493) fusion as the system for LFDYDFLFGNDKA
Completion: 0.271

Prompt: Provide the documented growth estimate with Saccharomyces cerevisiae PS128 hsf1 delta, HSF1(1-493) fusion as the system for DELSWIIKLLEKDG
Completion: -0.233

Prompt: Provide the documented growth estimate with Saccharomyces cerevisiae PS128 hsf1 delta, HSF1(1-493) fusion as the system for DLDESWDYIFEGTE
Completion: 1.27

Prompt: Provide the documented growth estimate with Saccharomyces cerevisiae PS128 hsf1 delta, HSF1(1-493) fusion as the system for EDDREFSLWDSML
Completion: -0.175

Prompt: Provide the documented growth estimate with Saccharomyces cerevisiae PS128 hsf1 delta, HSF1(1-493) fusion as the system for VADDIWEELRSEDL
Completion: -0.205

Prompt: Provide the documented growth estimate with Saccharomyces cerevisiae PS128 hsf1 delta, HSF1(1-493) fusion as the system for PEFPGIPLQELQELQALLQQ
Completion: -0.204

Prompt: Provide the documented growth estimate with Saccharomyces cerevisiae PS128 hsf1 delta, HSF1(1-493) fusion as the system for PFPDTQDDRLKWWRSEEAQ
Completion: -0.109

Prompt: Provide the documented growth estimate with Saccharomyces cerevisiae PS128 hsf1 delta, HSF1(1-493) fusion as the system for VADDIWEELLSEDP
Completion: 0.229

Prompt: Provide the documented growth estimate with Saccharomyces cerevisiae PS128 hsf1 delta, HSF1(1-493) fusion as the system for PFPDTQDDFLKWWRSEEAG
Completion: 0.0636

Prompt: Provide the documented growth estimate with Saccharomyces cerevisiae PS128 hsf1 delta, HSF1(1-493) fusion as the system for AFNDLLDLDFILSN
Completion: 0.948

Prompt: Provide the documented growth estimate with Saccharomyces cerevisiae PS128 hsf1 delta, HSF1(1-493) fusion as the system for LFDYDFLRGNDFA
Completion: -0.143

Prompt: Provide the documented growth estimate with Saccharomyces cerevisiae PS128 hsf1 delta, HSF1(1-493) fusion as the system for KFPDTQDDFLKWWRSEEAQ
Completion: -0.0955

Prompt: Provide the documented growth estimate with Saccharomyces cerevisiae PS128 hsf1 delta, HSF1(1-493) fusion as the system for EDDKEFSLWDSML
Completion: -0.135

Prompt: Provide the documented growth estimate with Saccharomyces cerevisiae PS128 hsf1 delta, HSF1(1-493) fusion as the system for EDRYSILWSDVY
Completion: -0.176

Prompt: Provide the documented growth estimate with Saccharomyces cerevisiae PS128 hsf1 delta, HSF1(1-493) fusion as the system for EDLYSILWSPVY
Completion: -0.241

Prompt: Provide the documented growth estimate with Saccharomyces cerevisiae PS128 hsf1 delta, HSF1(1-493) fusion as the system for VADDKWEELLSEDL
Completion: -0.236

Prompt: Provide the documented growth estimate with Saccharomyces cerevisiae PS128 hsf1 delta, HSF1(1-493) fusion as the system for PEFPGIELQERQELQALLQQ
Completion: -0.248

Prompt: Provide the documented growth estimate with Saccharomyces cerevisiae PS128 hsf1 delta, HSF1(1-493) fusion as the system for LFDYDFLFGNDFA
Completion: 6.94

Prompt: Provide the documented growth estimate with Saccharomyces cerevisiae PS128 hsf1 delta, HSF1(1-493) fusion as the system for EFNDGLDLDFILSN
Completion: -0.0825

Prompt: Provide the documented growth estimate with Saccharomyces cerevisiae PS128 hsf1 delta, HSF1(1-493) fusion as the system for DFDLDMLGKFDLDMLG
Completion: 1.77

Prompt: Provide the documented growth estimate with Saccharomyces cerevisiae PS128 hsf1 delta, HSF1(1-493) fusion as the system for VADDAWEELLSEDL
Completion: -0.24

Prompt: Provide the documented growth estimate with Saccharomyces cerevisiae PS128 hsf1 delta, HSF1(1-493) fusion as the system for EFNDLLDLDFILSA
Completion: -0.12
